Data origin: patent US6953814B2

Test system: Aedes aegypti mosquitoes
Assay: Mosquito repellency on skin (olfactometer, human forearm)
Type: in vivo
Conditions: on skin, 0.3 mg/cm^2, 4 h after application
Recorded Percent Repellency 4 h by entry
Output spec: scalar in %, unitless text.

[[record]]
compound = "CCN(CC)C(=O)c1cccc(C)c1 [DEET, N,N,-diethyl-m-toluamide, reference compound]"
units_symbol = "%"
test_value = 83


Let us move to another entry and its Percent Repellency 4 h.
Please fill in: Percent Repellency 4 h reported for CCCCCC(C)=CC(=O)O [3-Methyl-2-octenoic acid] = 47

---

Assay: Vapor pressure
Type: physicochemical
Details: at 125° C., estimated or extrapolated from literature values
Recorded Vol. (vapor pressure), (est) by entry

Reference set (3 entries):
[[record]]
molecule = "CCCCCCCCCCC(=O)O"
endpoint_name = "Vol. (vapor pressure), (est)"
test_value = "1.5 (est) mm Hg"

[[record]]
molecule = "CCCCCC=CC(=O)O"
endpoint_name = "Vol. (vapor pressure), (est)"
test_value = "10.8 mm Hg"

[[record]]
molecule = "CCC(C)=CC(=O)O"
endpoint_name = "Vol. (vapor pressure), (est)"
test_value = "49.5 mm Hg"


Please fill in: Vol. (vapor pressure), (est) reported for "CCC=CC(=O)O" = 92 mm Hg

Please fill in: Vol. (vapor pressure), (est) reported for CCC(C)CC(=O)O (stereo not drawn) = 49.5 mm Hg

Please fill in: Vol. (vapor pressure), (est) reported for "CCCCCCCC=CC(=O)O" = 2.4 (est) mm Hg

Please fill in: Vol. (vapor pressure), (est) reported for "CCCCCC(C)=CC(=O)O" = 6 (est) mm Hg

Please fill in: Vol. (vapor pressure), (est) reported for "CCCCCCCCCCCC(=O)O" = 0.57 mm Hg

Please fill in: Vol. (vapor pressure), (est) reported for CCCCC(C)CCC(=O)O (stereo not drawn) = 6 (est) mm Hg
